# Test system: DU-145 prostate
# assay_details: NCI tumour cell line growth inhibition, 48 h
quantity: TGI (µM)

compound	limit_qualifier	readout_value
CCOC(=O)c1[nH]c(Br)c(-c2ccc(Br)cc2)c1Br	=	55.8
O=C1CC(O)c2c(Br)sc(Br)c21 (centres undefined)	=	22.2
O=C(COc1ccc(OCC(=O)N2C(=O)CSC2=Nc2ccccc2)cc1)N1C(=O)CSC1=Nc1ccccc1	>	100
O=C1C(=O)c2ccccc2C(O)=C1CC=C(Br)Br	>	100
CCOC(=O)C(/C=N\C(=S)Nc1ccc(Cl)c(Cl)c1)=C(/O)c1ccccc1	>	100
O=c1ccn(C2OC(CO/N=C/c3ccc(O)c(O)c3O)C(O)C2O)c(=O)[nH]1 (centres undefined)	=	33.2
CCOP(=O)(CCCC(O)CNc1cc(Cl)nc(N)n1)OCC (centres undefined)	>	100
O=C(CCc1ccccc1)ON1C(=S)NC(c2ccccc2)(c2ccccc2)C1=S	>	100
COC1CC2CCC(C)C(O)(O2)C(=O)C(=O)N2CCCCC2C(=O)OC(C(C)CC2CCC(O)C(OC)C2)CC(=O)C(C)C=C(C)C(O)C(OC)C(=O)C(C)CC(C)/C=C/C=C/C=C1C (centres undefined)	=	10.9
CC1(C)N=C(N)N=C(N)N1c1ccc(OCCCCOc2ccc(S(=O)(=O)F)cc2)c(Cl)c1	=	16
COc1cc(/C=C2\C[C@H]3[C@@H]4CC=C5C=C(N6CCCC6)CC[C@]5(C)[C@H]4CC[C@]3(C)C2=O)cc(OC)c1OC	=	12.8
O=C1C=C(Sc2ccccc2)c2nccc3c2c1nc1ccccc13	>	100
Cc1c(-c2c(-c3ccc(F)o3)sc3ncnc(O[C@H](Cc4ccccc4OCc4ccnn4CC(F)(F)F)C(=O)O)c23)ccc(OCCN2CCN(C)CC2)c1Cl	=	5.36
Cc1ccc(NN=NCCCCN)cc1	>	100
N#Cc1c(O)c(N=Nc2ccccc2F)c(=O)n2c1[nH]c1ccccc12	>	100
O=C1/C(=C/c2ccccc2)CN(C(=O)c2cccnc2)C/C1=C\c1ccccc1	=	6.13
O=C(CC(C(=O)c1cccs1)c1ccsc1)c1cccs1 (centres undefined)	>	100
CCn1c(CN2CCN(Cc3ccccc3)CC2)nc2cc(NC(=O)c3cccs3)ccc21	>	100
COc1cc(-c2nn(-c3cccc(NC(=O)Nc4cc(C(F)(F)F)cc(C(F)(F)F)c4)c3)cc2-c2ccncc2)ccc1Cl	=	5.59

---

# System: NCI-H522 lung
# assay_details: NCI tumour cell line growth inhibition, 48 h
Listing of recorded TGI by entry.
quantity: TGI

> print(dat)
                                    molecule  readout.value
 1  O=C1CCC(=O)N1Cc1ccccc1N=[N+]([O-])c1ccccc1CN1C(=O)CCC1=O       > 100 µM
 2  CC(=O)Nc1ccc(NC(=O)c2c(Cl)c(Cl)c(Cl)c(Cl)c2-c2nc3ccccc3[nH]2)cc1       > 100 µM
 3          c1ccc(N=C(Nc2ccccc2)N2CCCCC2)cc1       > 100 µM
 4  OC1(c2ccccc2)CC2CCC(C1)N2CCCC1(c2ccc(F)cc2)OCCO1 (stereo unspecified)       > 100 µM
 5  Cc1cc(S(N)(=O)=O)c(S/C(CC(C)C)=N\Nc2ccc([N+](=O)[O-])cc2)cc1Cl        72.2 µM
 6  COc1cc(NC(C)=O)ccc1C(=O)N/N=C/c1ccc(Cl)cc1Cl       > 100 µM
 7  Cc1nc(Nc2ccccc2Cl)sc1C(=O)CC(=O)C(=O)Nc1c(Cl)cccc1Cl        60.4 µM
 8   O=c1ccc2nc(-c3ccccc3)nn(-c3ccccn3)c-2c1        2.97 µM
 9  CC(C)(C)C(=O)C(C(=O)C(C)(C)C)C(=O)C(C)(C)C       > 100 µM
10  CC(C)(C)c1cc(-c2cc(C(C)(C)C)n(-c3ccccc3)n2)nn1-c1ccccc1       > 100 µM
11  Cc1ccc(-n2c3c(c4c(CN(C)C)c(O)ccc42)CCc2ccccc2C3=O)cc1        32.7 µM
12  N#Cc1c(O)c(N=Nc2ccccc2F)c(=O)n2c1[nH]c1ccccc12        94.9 µM
13  COc1ccc(-n2nnnc2-c2c[nH]c3c(F)cc(F)cc23)cc1       > 100 µM
14  O=c1[nH]/c(=C/c2ccc(OCc3ccccc3)cn2)c(=O)[nH]/c1=C/c1ccc([N+](=O)[O-])cc1       > 100 µM
15  COC(=O)C1=C(C(=O)ON)C2C=CC1(C(Cc1ccccc1)Nc1ccccc1)O2 (stereo unspecified)        2.98 µM
16       Cn1nc2ccc3nccc(N4CCN(CCO)CC4)c3c2n1       > 100 µM
17   COc1ccc(/C=C/C(=O)/C=C/c2ccc(OC)cc2)cc1       > 100 µM
18  CCOP(=O)(CCCC(O)CNc1cc(Cl)nc(N)n1)OCC (stereo unspecified)       > 100 µM
19        Cc1ccc(N=Nc2ccc(O)c(CN(C)C)c2)cc1C        28.3 µM
20  CC(OC(C)(C)C)[C@H](NC(=O)OC(C)(C)C)C(=O)O (stereo partly specified)       > 100 µM
21          COc1cc(C)c2c(=O)c3ccccc3n(C)c2c1        5.74 µM

---

# Tested on: UO-31 renal
# assay_details: NCI tumour cell line growth inhibition, 48 h
Listing of recorded TGI by entry.
quantity: TGI

> print(dat)
                                    compound  quantity  readout.value
 1           Oc1cc(-c2ccccc2)cn2c1nc1ccccc12       TGI      > 32.8 µM
 2  COc1cc(/C=C2\C[C@H]3[C@@H]4CC=C5C=C(N6CCCC6)CC[C@]5(C)[C@H]4CC[C@]3(C)C2=O)cc(OC)c1OC       TGI        8.48 µM
 3                      Cc1ccc(NN=NCCCCN)cc1       TGI       > 100 µM
 4  COc1cc2cc(Oc3ccc(NC(=O)Nc4cccc(C(F)(F)F)c4)cc3)c(C)nc2cc1OC       TGI        10.8 µM
 5  CC(C)c1ccc(C2C3=C(N=C4SCC(=O)N42)C(=O)c2ccccc23)cc1 (stereo not given)       TGI       > 100 µM
 6  CC(C)(C)C(=O)C(C(=O)C(C)(C)C)C(=O)C(C)(C)C       TGI       > 100 µM
 7  CC(C)[C@H](CO)Nc1nc(Nc2ccc(C(=O)NCCNS(=O)(=O)c3cccc4c(N(C)C)cccc34)c(Cl)c2)c2ncn(C(C)C)c2n1       TGI       > 100 µM
 8  O=C1c2cc3c(cc2-c2c1c1ccc(Cl)cc1c(=O)n2CCCNCCO)OCO3       TGI        1.87 µM
 9  COc1ccc(C(=O)Cc2c(C(=O)c3ccccc3)c3ccccc3n2C(=O)c2ccccc2)cc1       TGI       > 100 µM
10  N#CC(C(=O)CCC(=O)C(C#N)c1ccccc1)c1ccccc1 (stereo not given)       TGI       > 100 µM

---

Listing of recorded TGI by entry.
# Test system: A549 NSCLC
# assay_details: NCI tumour cell line growth inhibition, 48 h
quantity: TGI

> print(dat)
                                   molecule  readout.value
1             FC(F)(Sc1ccccn1)c1nc2ccccc2o1       > 100 µM
2  O=c1[nH]/c(=C/c2ccc(OCc3ccccc3)cn2)c(=O)[nH]/c1=C/c1ccc([N+](=O)[O-])cc1       > 100 µM
3  Nc1c2c(=O)[nH]c(=O)c2c(N)c2c(=O)c3ccccc3c(=O)c12      > 23.1 µM
4  COc1ccc2nc3ccc(OC)cc3c(SCc3ccc([N+](=O)[O-])cc3)c2c1       > 100 µM
5  CC(=O)OCC(OC(C)=O)C(OC(C)=O)C(OC(C)=O)C(C=NN(C(C)=O)S(=O)(=O)c1ccc(/C=C2\NC(=O)N(C)C2=O)cc1)OC(C)=O (stereo not given)       > 100 µM

---

# Tested on: OVCAR-5 ovarian
# assay_details: NCI tumour cell line growth inhibition, 48 h; in the data active = GI50 below about 0.43 µM; inactive = the rest
Classes used: label 1 for active, label 0 for inactive

> print(dat)
                              sample.smiles  category.label
1  COc1ccc(-n2nnnc2-c2c[nH]c3c(F)cc(F)cc23)cc1         label 0
2      COc1ccc(/C=C/C(=O)c2ccc(SC)cc2)cc1OC         label 0
3           C/C(=N/Nc1nc2ccccc2n1C)c1ccccn1         label 1
4   Cc1cc2nc3c4cc(N)ccc4n(CCN(C)C)c3nc2cc1C         label 0
5  COc1ccccc1CCN=C1NC(=O)/C(=C/c2ccc3ncccc3c2)S1         label 0
6                        Ic1ccccc1-c1ccccc1         label 0

Origin of measurements: PubChem BioAssay (NCI)
